Attribution: paper PMC4362054

# CC50 listing for each entry below
- test.method.notes: Inhibition of cell proliferation (MTT method), Vero cells
- Assay type: cell-based
- measurement.context: African green monkey, Vero cells (African green monkey kidney), concentration which inhibited cell growth by 50% vs control cultures, mean of three assays

molecule	CC50 / µM
CCCc1cn(C[C@H]2C[C@@H](n3cc(C)c(=O)[nH]c3=O)ON2C)nn1 [13c]	20
Cc1cn([C@@H]2C[C@H](Cn3cc(-c4ccc(F)cc4)nn3)N(C)O2)c(=O)[nH]c1=O [13f]	10
CCCCCc1ccc(-c2cn(C[C@H]3C[C@@H](n4cc(C)c(=O)[nH]c4=O)ON3C)nn2)cc1 [13g]	10
Cc1cn([C@H]2C[C@H](Cn3cc(-c4ccccc4)nn3)N(C)O2)c(=O)[nH]c1=O [14d]	5
Cc1cn([C@H]2C[C@H](Cn3cc(CCO)nn3)N(C)O2)c(=O)[nH]c1=O [14a]	20
Cc1cn([C@H]2C[C@H](Cn3cc(-c4ccc(F)cc4)nn3)N(C)O2)c(=O)[nH]c1=O [14f]	20
COc1ccc(-c2cn(C[C@H]3C[C@@H](n4cc(C)c(=O)[nH]c4=O)ON3C)nn2)cc1 [13e]	20
CCCc1cn(C[C@H]2C[C@H](n3cc(C)c(=O)[nH]c3=O)ON2C)nn1 [14c]	20
